Values compiled from paper PMC8012516.

Biological target: T1, S-receptor-binding domain (RBD)-Fc of SARS-CoV-2 (SARS-CoV-2, UniProt P0DTC2)
T1 construct: also called S-RBD-Fc of SARS-CoV-2; S-RBD-Fc
Experiment: SPR
Settings: both partners purified
value.kind: Kd (nM)
Write it as a number; the unit nM goes unstated.

Short answer for VQWRIRVAVIRK (also called antimicrobial peptide DP7) [antibacterial peptide DP7] : Kd was 51.9
